Test system: Wild type
Test: S. aureus survival, RN4220 and DeltatarO strains – OD600, teichoic acid synthesis inhibitors, primary screen (AID 463173)
Settings: S. aureus RN4220 wild type/DeltatarO growth, OD600, 18 h, stronger effect = lower value, screened at 18.75 µg/mL (by protocol)
The whole screen tested about 52,000 compounds, of which about 1,700 (3.3%) were called active. Many of the other results were omitted from the sample, so actives are more common in it than they were.
So basically, if survival comes in under 80% it's Criterion met, and if it's 80% or more it's Criterion not met.

> print(dat)
                                   molecule     discrete.label
1  COc1ccc(C(=O)Nc2ccc(C(=O)OCc3cc(=O)n4nc(C5CC5)sc4n3)cc2)cc1      Criterion met
2  Cc1cccc(C)c1-n1ncc(C(=O)NCCN2CCN(C)CC2)c1C1CCN(C(=O)OC(C)(C)C)CC1      Criterion met
3  COc1ccc(C(=O)Nc2cccc(C(=O)OCc3cc(=O)n4nc(C5CC5)sc4n3)c2)cc1  Criterion not met

Consider the additional molecule presented here.
Problem: For the molecule CCOc1ccc(NC(=O)N2CCC(CN3CCc4ccccc4C3)CC2)cc1 , is survival under 80%?
Criterion met

Taken from PubChem BioAssay AID463173.
